Catalogue of IC50 values
# Target Of Assay: EGFR del19/C797S (Homo sapiens, UniProt P00533, C797S/DEL746-750)
# Sequence (P00533 with tags, fused parts or gaps DEL746-750/C797S): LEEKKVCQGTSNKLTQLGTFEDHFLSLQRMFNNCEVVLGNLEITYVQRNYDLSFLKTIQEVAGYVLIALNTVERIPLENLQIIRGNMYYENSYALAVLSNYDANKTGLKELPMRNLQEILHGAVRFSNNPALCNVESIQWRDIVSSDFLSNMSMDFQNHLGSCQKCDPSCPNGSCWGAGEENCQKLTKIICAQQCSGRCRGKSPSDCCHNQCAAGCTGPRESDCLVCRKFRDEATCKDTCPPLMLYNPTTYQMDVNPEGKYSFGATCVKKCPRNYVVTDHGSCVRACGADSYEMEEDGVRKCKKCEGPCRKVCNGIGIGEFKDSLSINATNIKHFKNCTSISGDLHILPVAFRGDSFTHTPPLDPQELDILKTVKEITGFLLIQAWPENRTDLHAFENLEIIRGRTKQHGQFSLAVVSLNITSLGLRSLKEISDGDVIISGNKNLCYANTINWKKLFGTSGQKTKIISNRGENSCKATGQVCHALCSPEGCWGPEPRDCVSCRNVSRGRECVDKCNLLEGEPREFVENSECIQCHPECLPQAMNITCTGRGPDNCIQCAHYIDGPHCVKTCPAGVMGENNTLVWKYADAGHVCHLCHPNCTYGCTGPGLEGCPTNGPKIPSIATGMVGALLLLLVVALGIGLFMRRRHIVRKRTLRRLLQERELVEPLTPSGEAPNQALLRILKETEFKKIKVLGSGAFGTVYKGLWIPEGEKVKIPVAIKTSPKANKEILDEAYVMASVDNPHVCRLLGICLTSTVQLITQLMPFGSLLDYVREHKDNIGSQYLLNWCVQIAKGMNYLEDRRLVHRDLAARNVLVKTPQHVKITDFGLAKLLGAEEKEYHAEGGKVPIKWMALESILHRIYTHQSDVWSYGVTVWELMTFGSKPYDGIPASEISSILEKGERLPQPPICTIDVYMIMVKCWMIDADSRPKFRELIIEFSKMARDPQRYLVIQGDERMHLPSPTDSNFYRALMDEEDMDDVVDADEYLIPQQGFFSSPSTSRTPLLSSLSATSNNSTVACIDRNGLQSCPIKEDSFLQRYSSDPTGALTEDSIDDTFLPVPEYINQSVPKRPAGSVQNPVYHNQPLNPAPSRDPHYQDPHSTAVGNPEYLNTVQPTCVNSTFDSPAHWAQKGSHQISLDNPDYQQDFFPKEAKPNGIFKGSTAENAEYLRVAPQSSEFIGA
# Assay Overview: Biochemical EGFR kinase assay (Lance Ultra TR-FRET), double mutant del19/C797S
# Setup Conditions: IC50 del19/C797S (nM) 100 μM ATP, 100 μM ATP
Number in nM, nothing else.

Use these answered entries as a reference point.
{"Compound": "O=S(=O)(C1CC1)n1cc(-c2nccc(Nc3cc(N[C@H]4CC[C@@H](NCC(F)F)CC4)c(-c4ccn(C(F)F)n4)cn3)n2)cn1", "Unit Abbrev": "nM", "IC50": 0.9}
{"Compound": "O=S(=O)(C1CC1)n1cc(-c2nccc(Nc3cc(NC4CCC5(CC4)CNC5)c(-c4ccn(C(F)F)n4)cn3)n2)cn1", "Unit Abbrev": "nM", "IC50": 0.3}

Could you share which IC50 value was measured for CC1CC(Nc2cc(Nc3ccnc(-c4cnn(S(=O)(=O)C5CC5)c4)n3)ncc2-c2ccn(C(F)F)n2)CCC1O (stereo not shown) ?
73

Could you share which IC50 value was measured for CN(C)CCNC1CCC(Nc2cc(Nc3ccnc(-c4cnn(S(=O)(=O)C5CC5)c4)n3)ncc2-c2csc(C(F)(F)F)n2)CC1 (stereo not shown) ?
1.9

Could you share which IC50 value was measured for "CN[C@H]1CC[C@@H](Nc2cc(Nc3ccnc(-c4cnn(S(=O)(=O)C5CC5)c4)n3)ncc2-c2csc(C(C)(C)O)n2)CC1" ?
13.2

Could you share which IC50 value was measured for "C[C@]1(O)CC[C@@H](Nc2cc(Nc3ccnc(-c4cnn(S(=O)(=O)C5CC5)c4)n3)ncc2-c2cn(C(F)F)cn2)CC1" ?
0.9

Could you share which IC50 value was measured for "O=S(=O)(C1CC1)n1cc(-c2nccc(Nc3cc(N[C@H]4CC[C@@H](CCO)CC4)c(-c4ccn(C(F)F)n4)cn3)n2)cn1" ?
1.1

Could you share which IC50 value was measured for CN(C)CCNC1CCC(Nc2cc(Nc3ccnc(-c4cnn(S(=O)(=O)C5CC5)c4)n3)ncc2-c2ccn(C(F)F)n2)CC1 (stereo not shown) ?
1.7

Could you share which IC50 value was measured for "O=S(=O)(C1CC1)n1cc(-c2nccc(Nc3cc(N[C@H]4CC[C@@H](NCCF)CC4)c(-c4nc(C(F)F)cs4)cn3)n2)cn1" ?
1.3

Could you share which IC50 value was measured for "O=S(=O)(C1CC1)n1cc(-c2nccc(Nc3cc(NC[C@H]4C[C@H](CO)C4)c(-c4ccn(C(F)F)n4)cn3)n2)cn1" ?
1.8

Could you share which IC50 value was measured for "CC(C)(O)[C@H]1CC[C@@H](Nc2cc(Nc3ccnc(-c4cnn(S(=O)(=O)C5CC5)c4)n3)ncc2-c2ccn(CC(F)(F)F)n2)CC1" ?
12.2

Could you share which IC50 value was measured for "Cc1cc(-c2cnc(Nc3ccnc(-c4cnn(S(=O)(=O)C5CC5)c4)n3)cc2N[C@H]2CC[C@@H](C(C)(C)O)CC2)nn1C" ?
1.1

Could you share which IC50 value was measured for "CS(=O)(=O)c1ccccc1Nc1nccc(Nc2cc(N[C@H]3CC[C@@](C)(O)CC3)c(-c3ccn(C(F)F)n3)cn2)n1" ?
74.5

----------
Catalogue of log10 IC50 values
# Target Of Assay: EGFR L858R/C797S (Homo sapiens, UniProt P00533, C797S/L858R)
# Sequence (P00533 25-1210 C797S/L858R): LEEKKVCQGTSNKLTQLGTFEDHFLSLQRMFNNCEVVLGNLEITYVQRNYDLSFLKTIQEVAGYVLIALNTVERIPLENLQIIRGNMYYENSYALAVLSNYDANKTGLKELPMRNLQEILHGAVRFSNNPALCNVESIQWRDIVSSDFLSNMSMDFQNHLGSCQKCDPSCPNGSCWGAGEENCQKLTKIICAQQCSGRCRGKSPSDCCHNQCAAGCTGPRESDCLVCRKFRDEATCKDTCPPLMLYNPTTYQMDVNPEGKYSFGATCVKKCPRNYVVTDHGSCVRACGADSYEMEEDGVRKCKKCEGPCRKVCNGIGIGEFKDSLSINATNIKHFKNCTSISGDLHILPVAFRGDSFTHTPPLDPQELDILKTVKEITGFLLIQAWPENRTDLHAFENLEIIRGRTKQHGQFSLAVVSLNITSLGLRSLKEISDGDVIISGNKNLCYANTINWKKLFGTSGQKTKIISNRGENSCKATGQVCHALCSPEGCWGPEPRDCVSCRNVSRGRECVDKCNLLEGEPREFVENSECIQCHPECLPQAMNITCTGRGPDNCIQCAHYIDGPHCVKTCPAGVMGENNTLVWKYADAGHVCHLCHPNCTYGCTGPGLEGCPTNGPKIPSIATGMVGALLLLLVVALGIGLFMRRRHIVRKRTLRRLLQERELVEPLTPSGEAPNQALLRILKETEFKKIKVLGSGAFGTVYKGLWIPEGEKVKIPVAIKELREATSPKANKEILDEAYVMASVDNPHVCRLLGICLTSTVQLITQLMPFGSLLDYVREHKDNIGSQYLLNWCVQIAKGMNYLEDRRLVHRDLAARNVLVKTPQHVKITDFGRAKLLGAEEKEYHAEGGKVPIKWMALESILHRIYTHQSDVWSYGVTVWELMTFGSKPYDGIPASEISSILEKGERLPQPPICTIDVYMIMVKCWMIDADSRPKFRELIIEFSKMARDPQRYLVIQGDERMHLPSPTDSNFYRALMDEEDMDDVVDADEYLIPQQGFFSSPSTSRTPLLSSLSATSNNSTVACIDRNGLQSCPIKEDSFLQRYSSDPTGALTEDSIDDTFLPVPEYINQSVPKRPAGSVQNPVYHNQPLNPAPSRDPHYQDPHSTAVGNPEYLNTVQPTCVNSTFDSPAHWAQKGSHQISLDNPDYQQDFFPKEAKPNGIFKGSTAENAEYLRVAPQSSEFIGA
# Assay Overview: Biochemical EGFR kinase assay (Lance Ultra TR-FRET), double mutant L858R/C797S
# Setup Conditions: Km ATP; read-out: IC50 L858R/C797S (nM) Km ATP
Heads up: the numbers are on a log10 scale; they represent IC50 in nM.

{"Compound": "O=S(=O)(C1CC1)n1cc(-c2nccc(Nc3cc(N[C@H]4CC[C@@H](NCCF)CC4)c(-c4ccn(CC(F)F)n4)cn3)n2)cn1", "Target Of Assay": "EGFR L858R/C797S (Homo sapiens, UniProt P00533, C797S/L858R)", "Reported Metric": "log10 IC50", "Readout Number": 0.08}
{"Compound": "Cn1ccc(-c2cnc(Nc3ccnc(-c4cnn(S(=O)(=O)C5CC5)c4)n3)cc2N[C@H]2CC[C@H](CO)CC2)n1", "Target Of Assay": "EGFR L858R/C797S (Homo sapiens, UniProt P00533, C797S/L858R)", "Reported Metric": "log10 IC50", "Readout Number": 0.15}
{"Compound": "Cn1nc(-c2cnc(Nc3ccnc(-c4cnn(S(=O)(=O)C5CC5)c4)n3)cc2NC[C@H]2CC[C@@H](O)C2)cc1C(F)(F)F", "Target Of Assay": "EGFR L858R/C797S (Homo sapiens, UniProt P00533, C797S/L858R)", "Reported Metric": "log10 IC50", "Readout Number": 0.75}
{"Compound": "O=S(=O)(C1CC1)n1cc(-c2nccc(Nc3cc(N[C@H]4CCC[C@H](CO)C4)c(-c4ccn(CC(F)(F)F)n4)cn3)n2)cn1", "Target Of Assay": "EGFR L858R/C797S (Homo sapiens, UniProt P00533, C797S/L858R)", "Reported Metric": "log10 IC50", "Readout Number": 0.66}
{"Compound": "O=S(=O)(C1CC1)n1cc(-c2nccc(Nc3cc(NC[C@H]4C[C@H](CO)C4)c(-c4ccn(C(F)F)n4)cn3)n2)cn1", "Target Of Assay": "EGFR L858R/C797S (Homo sapiens, UniProt P00533, C797S/L858R)", "Reported Metric": "log10 IC50", "Readout Number": 0.49}
{"Compound": "O=S(=O)(C1CC1)n1cc(-c2nccc(Nc3cc(NC4CCC(F)(F)C4)c(-c4ccn(C(F)F)n4)cn3)n2)cn1 (stereo not shown)", "Target Of Assay": "EGFR L858R/C797S (Homo sapiens, UniProt P00533, C797S/L858R)", "Reported Metric": "log10 IC50", "Readout Number": 0.87}
{"Compound": "O=S(=O)(C1CC1)n1cc(-c2nccc(Nc3cc(NC4CCC(F)(F)CC4)c(-c4ccn(C(F)F)n4)cn3)n2)cn1", "Target Of Assay": "EGFR L858R/C797S (Homo sapiens, UniProt P00533, C797S/L858R)", "Reported Metric": "log10 IC50", "Readout Number": 1.51}
{"Compound": "Cn1ccc(-c2cnc(Nc3ccnc(-c4cnn(S(=O)(=O)C5CC5)c4)n3)cc2N[C@H]2CC[C@@H](NCC(F)F)CC2)n1", "Target Of Assay": "EGFR L858R/C797S (Homo sapiens, UniProt P00533, C797S/L858R)", "Reported Metric": "log10 IC50", "Readout Number": -0.15}
{"Compound": "O=S(=O)(C1CC1)n1cc(-c2nccc(Nc3cc(NCC4CCC(NCCF)CC4)c(-c4ccn(C(F)F)n4)cn3)n2)cn1 (stereo not shown)", "Target Of Assay": "EGFR L858R/C797S (Homo sapiens, UniProt P00533, C797S/L858R)", "Reported Metric": "log10 IC50", "Readout Number": -0.10}
{"Compound": "O=S(=O)(C1CC1)n1cc(-c2nccc(Nc3cc(NN4CCC(O)CC4)c(-c4ccn(C(F)F)n4)cn3)n2)cn1", "Target Of Assay": "EGFR L858R/C797S (Homo sapiens, UniProt P00533, C797S/L858R)", "Reported Metric": "log10 IC50", "Readout Number": -1.00}

Could you share which log10 IC50 value was measured for "O=S(=O)(C1CC1)n1cc(-c2nccc(Nc3cc(N[C@H]4CC[C@@H](NCC(F)F)CC4)c(-c4csc(C(F)(F)F)n4)cn3)n2)cn1" ?
1.18

Could you share which log10 IC50 value was measured for "Cn1nc(-c2cnc(Nc3ccnc(-c4cnn(S(=O)(=O)C5CC5)c4)n3)cc2N[C@H]2CC[C@@H](C(C)(C)O)CC2)cc1C(C)(C)O" ?
0.04

Could you share which log10 IC50 value was measured for "C[C@]1(O)CC[C@@H](Nc2cc(Nc3ccnc(-c4cnn(S(=O)(=O)C5CC5)c4)n3)ncc2-c2ccn(CCC(F)(F)F)n2)CC1" ?
-0.52
